System: HCT-116 colon
Assay Text: NCI tumour cell line growth inhibition, 48 h; in the data active means GI50 below about 0.43 µM; inactive means the rest
Tick one outcome: 1 for active, -1 for inactive

Compound	Assigned Label
CC/C=C\C[C@H]1CC=C2C(=O)C=C[C@@H]2CC=CCCCC(=O)O[C@@H](CCCCC)CC=C2C(=O)C=C[C@@H]2CC=CCCCC(=O)O[C@@H](CCCCC)CC=C2C(=O)C=C[C@@H]2CC=CCCCC(=O)O[C@@H](CCCCC)CC=C2C(=O)C=C[C@@H]2CC=CCCCC(=O)O1	-1

Hey, what did the test say about COc1ccc2c(c1)C(=O)/C(=C/c1cccc(OCC(=O)c3ccccc3)c1)O2 ?
-1

Hey, what did the test say about C#CC1(O)C(COP(=O)(O)OCC(COP(=O)(O)OCC2OC(n3cc(F)c(=O)[nH]c3=O)CC2O)OCCCCCCCCCCCCCCCCCC)OC(n2ccc(N)nc2=O)C1O (centres undefined) ?
1

Hey, what did the test say about CCN(CC)CCNC(Cc1ccccc1)c1ccc(OCc2ccccc2)cc1 (centres undefined) ?
-1

Hey, what did the test say about CN(C)C/C=C/C(=O)Nc1ccc(C(=O)N[C@@]2(C)CCC[C@@H](Nc3ncc(Cl)c(-c4c[nH]c5ccccc45)n3)C2)nc1 ?
1

Hey, what did the test say about COC(=O)c1ccc2[nH]c(O)c(C(=Nc3ccc(N(C)C(=O)CN4CCN(C)CC4)cc3)c3ccc4c(c3)OCO4)c2c1 ?
1

----------
Consider the following molecules and their measured TGI readings.
System: EKVX NSCLC
Assay Text: NCI tumour cell line growth inhibition, 48 h

For orientation, consider the following solved cases.
> print(dat)
                               input.smiles  parameter  measured
1  O=C(Oc1ccc[nH]c1=O)c1cc([N+](=O)[O-])cc([N+](=O)[O-])c1        TGI  > 100 µM
2  N[C@@H]1CCN(c2c(F)cc3c(=O)c(C(=O)O)cn4c3c2Oc2c-4ccc3c2ccc2ccccc23)C1        TGI  > 100 µM
3  Cc1ccc2c(ccc(/C=C/c3ccc(O)c4ncccc34)[n+]2C)c1        TGI   76.6 µM
4                 NC(=Nc1ccccc1Cl)c1ccccc1N        TGI  > 100 µM

Let us move to another entry and its TGI.
Query the reported TGI for EKVX NSCLC; item: Clc1ccc(CCN(CCc2ccc(Cl)c(Cl)c2)CCN2CCCC2)cc1Cl
4.4 µM

----------
System: SR leukemia
Assay Text: NCI tumour cell line growth inhibition, 48 h
Consider the following compounds and their measured TGI readings.

For orientation, consider the following solved cases.
> print(dat)
                                   compound  measured
1  ONC1=Nc2cc(Cl)ccc2C(=S)N2CSCC12 (stereo not given)  > 100 µM
2  O=c1oc2ccccc2c(Nc2ccc3c(c2)Sc2ccccc2O3)c1[N+](=O)[O-]   57.3 µM
3  COc1ccc2c(c1)/C(=C\c1c(Cl)[nH]c3cc(C)c(OC)cc13)C(=O)N2   2.58 µM
4  COc1ccc2c(c1)OC1=C(C(=O)OC1)C2c1cc(OC)c2c(c1)OCCO2 (stereo not given)  > 100 µM

Can you share its TGI? I mean this compound: Cc1ccc(S(=O)(=O)Nc2cccc3c(=O)[nH]cnc23)cc1
> 100 µM

Can you share its TGI? I mean this compound: CN(C)CCC(=O)N1C/C(=C\c2ccc(Cl)c(Cl)c2)C(=O)/C(=C/c2ccc(Cl)c(Cl)c2)C1
9.84 µM

Can you share its TGI? I mean this compound: COC1(OC)N=C(N)C2(C#N)C(c3ccccc3)NC3=C(CCC3)C12C#N (stereo not given)
> 100 µM

Can you share its TGI? I mean this compound: CCOC(=O)CCC(NC(=O)c1ccc(Nc2nc3ccc(C(F)(F)F)cc3nc2-c2ccccc2)cc1)C(=O)OCC (stereo not given)
> 100 µM

Can you share its TGI? I mean this compound: CC(=O)SCCC(NC(=S)Nc1ccccc1)P(=O)(Oc1ccccc1)Oc1ccccc1 (stereo not given)
> 100 µM

Can you share its TGI? I mean this compound: Cc1ccc(C(=O)O)c(/C=C2\Cc3ccc(C)cc3C2=O)c1
> 100 µM

----------
Tested on: SK-MEL-5 melanoma
Assay Text: NCI tumour cell line growth inhibition, 48 h
Consider the following molecules and their measured TGI readings.

Molecule	Parameter	Measured
COC(=O)[C@@H]1C[C@H]2OC(=O)CC[C@]2(C)O[C@H]1[C@H]1O[C@@](C)(O)CCC[C@H]1C	TGI	> 50 µM
O=c1[nH]c2cc(C(F)(F)F)ccc2nc1C(F)(F)F	TGI	35.7 µM
C=C(C)[C@@H]1CC[C@]2(COCCCN)CC[C@]3(C)[C@H](CC[C@@H]4[C@@](C)(CCCNCCCN)[C@H](C(=C)C)CC[C@]43C)[C@@H]12	TGI	3.27 µM

Can you share its TGI? I mean this molecule: Cc1c(-c2ccccc2)cc(O)c2nc3ccccc3n12
> 100 µM

Can you share its TGI? I mean this molecule: O=C(Oc1ccc[nH]c1=O)c1cc([N+](=O)[O-])cc([N+](=O)[O-])c1
> 100 µM

Can you share its TGI? I mean this molecule: COC(=O)C1=C(OC(=O)/C(=C/c2ccccc2)c2ccc(Cl)cc2Cl)C(C(=O)OC)[C@@]2(O)[C@@H](C(=O)OC)[C@H](C)C[C@@H]1[C@@H]2C(=O)OC (some centres not stated)
> 100 µM

Can you share its TGI? I mean this molecule: O=C(NC1=C(Cl)C(=O)c2ccccc2C1=O)c1ccccc1
78.9 µM

Can you share its TGI? I mean this molecule: O=C1COc2cc(NC(=S)Nc3ccccc3)ccc2N1
> 100 µM

Can you share its TGI? I mean this molecule: CC[C@@H](C)[C@H](NC(=O)[C@H](Cc1ccccc1)NCC(F)(F)F)C(=O)OC(C)(C)C
> 100 µM

Can you share its TGI? I mean this molecule: COc1cc(NCC(C#N)C#N)ccc1N=Nc1ccc(Cl)cc1
45.9 µM

----------
Consider the following compounds and their measured TGI readings.
Tested on: SF-268 CNS
Assay Text: NCI tumour cell line growth inhibition, 48 h

For orientation, consider the following solved cases.
> print(dat)
                                   compound  parameter  measured
1        COc1ccc(C=O)cc1O[Si](C)(C)C(C)(C)C        TGI  > 100 µM
2          Oc1ccc2ccccc2c1N=Nc1cccc2ccccc12        TGI  > 100 µM
3  CCOC(=O)c1sc(=S)n(-c2ccc(Cl)cc2)c1-n1cc(-c2ccccc2)c(C#N)c1N        TGI    8.6 µM
4  CCCC(C)c1ccc(OCCCCCCN2CCNCC2)cc1 (configuration not stated)        TGI   9.89 µM
5     CNc1ncccc1Nc1cc(=O)n2c3cccnc3n(C)c2c1        TGI  > 100 µM

Query the reported TGI for SF-268 CNS; item: CCC1=CCN(c2cc(C)ccn2)OC1c1ccc(OC)cc1 (configuration not stated)
> 100 µM

Query the reported TGI for SF-268 CNS; item: NC1=NN(c2ccccc2)C(=O)C1C(=O)CCC(=O)Nc1cccc(Cl)c1 (configuration not stated)
> 100 µM

Query the reported TGI for SF-268 CNS; item: COc1ccc(Cn2c(=O)c(OC)c(C)c3cc4ccccc4cc32)cc1
> 100 µM

----------
Tested on: 786-0 renal
Assay Text: NCI tumour cell line growth inhibition, 48 h; in the data active means GI50 below about 0.43 µM; inactive means the rest
Tick one outcome: active, inactive

Below, 3 molecules whose answers are already recorded.
Molecule	Assigned Label
CCN1C(=O)/C(=C/c2c(Cl)[nH]c3cc(C)c(OC)cc23)c2ccccc21	inactive
CCN(CC)CCNC(Cc1ccccc1)c1ccc(OCc2ccccc2)cc1 (stereo not drawn)	inactive
C=C(C)[C@@H]1CC[C@]2(COCCCN)CC[C@]3(C)[C@H](CC[C@@H]4[C@@](C)(CCCNCCCN)[C@H](C(=C)C)CC[C@]43C)[C@@H]12	inactive

Hey, what did the test say about C#CC1(O)C(COP(=O)(O)OCC(COP(=O)(O)OCC2OC(n3cc(F)c(=O)[nH]c3=O)CC2O)OCCCCCCCCCCCCCCCCCC)OC(n2ccc(N)nc2=O)C1O (stereo not drawn) ?
active

Hey, what did the test say about COC(=O)c1ccc2[nH]c(O)c(C(=Nc3ccc(N(C)C(=O)CN4CCN(C)CC4)cc3)c3ccc4c(c3)OCO4)c2c1 ?
inactive

Hey, what did the test say about C=C1c2c(C)nn(-c3ccc(C#CCOC4OC(CO)C(O)C(O)C4O)cc3)c2N(C)C23C[C@H]1C1(C)c4c(C)nn(-c5ccc(C#CCOC6OC(CO)C(O)C(O)C6O)cc5)c4N(C)C(C)(C[C@H]12)C3 (stereo partly drawn) ?
inactive

Hey, what did the test say about CCOC(=O)[CH-]C(=O)C12CC3CC(CC(C3)C1)C2.CCOC(=O)[CH-]C(=O)C12CC3CC(CC(C3)C1)C2.CC[O-].CC[O-].[Ti+4] ?
inactive

Hey, what did the test say about COc1ccc2c(c1)C(=O)/C(=C/c1cccc(OCC(=O)c3ccccc3)c1)O2 ?
inactive

Hey, what did the test say about CC(=O)OC1OC([C@H]2c3cccc(O)c3C(=O)c3c(O)cc(C)cc32)C(O)C(O)C1O (stereo partly drawn) ?
active

Hey, what did the test say about CCOc1cccc(/C=N/NC(=O)c2cccc(Nc3ccnc(C(F)(F)F)c3)c2)c1O ?
inactive

Hey, what did the test say about CCN1C(=O)c2ccc3c4c(ccc(c24)C1=O)C(=O)N(CCCNCc1ccccc1OC)C3=O ?
inactive

Hey, what did the test say about CC/C=C\C[C@H]1CC=C2C(=O)C=C[C@@H]2CC=CCCCC(=O)O[C@@H](CCCCC)CC=C2C(=O)C=C[C@@H]2CC=CCCCC(=O)O[C@@H](CCCCC)CC=C2C(=O)C=C[C@@H]2CC=CCCCC(=O)O[C@@H](CCCCC)CC=C2C(=O)C=C[C@@H]2CC=CCCCC(=O)O1 ?
inactive

Hey, what did the test say about O=C(Oc1ccc[nH]c1=O)c1cc([N+](=O)[O-])cc([N+](=O)[O-])c1 ?
inactive
